Tested on: Mus musculus
Test: AUC (0 to 5 hrs) in BALB/c mouse at 20 mg/kg
Type: ADME, organism-based, Plasma
Set-up: time < 4 hr, dose 20 mg/kg
Settings: in vivo, 4 h
Property measured: AUC (µM·h)

a: O=C(Nc1cc(N2CCC(N3CCCC3)CC2)cc(C(F)(F)F)c1)c1cccc(C(F)(F)F)c1
b: O=C(Nc1cccc(C(F)(F)F)c1)c1cc(N2CCc3ccccc3C2)cc(C(F)(F)F)c1
Which entry shows the lesser value of AUC here, a or b ? Answer by stating the label of the chosen item.
b

====

Assay: Cytotoxicity against human HuH7 cells
Assay type: cell-based, Huh-7
Conditions: read-out: TC50 (the source's name)
Property measured: CC50

Please report the measured CC50 for "CC1CCN(C2CCN(c3cc(C(=O)Nc4cccc(Cl)c4)cc(C(F)(F)F)c3)CC2)CC1"
> 8 µM

====

Test: Cytotoxicity against human HeLa cells
Assay type: cell-based
Details: read-out: TC50 (the source's name)
Property measured: CC50

Please report the measured CC50 for "CC1CCN(C2CCN(c3cc(C(=O)Nc4cccc(Cl)c4)cc(C(F)(F)F)c3)CC2)CC1"
> 8 µM

====

Test: Cytotoxicity against CHO cells
Format: cell-based, Cricetulus griseus
Conditions: chinese hamster, read-out: TC50 (the source's name)
Property measured: CC50

Please report the measured CC50 for "CC1CCN(C2CCN(c3cc(C(=O)Nc4cccc(Cl)c4)cc(C(F)(F)F)c3)CC2)CC1"
> 8 µM

====

Test: Selectivity index, TC50 for human HuH7 cells to EC50 for chloroquine-sensitive Plasmodium falciparum 3D7
Type: toxicity, cell-based, Huh-7
Settings: read-out: Selectivity Index
Property measured: selectivity ratio

Please report the measured selectivity ratio for "CC1CCN(C2CCN(c3cc(C(=O)Nc4cccc(Cl)c4)cc(C(F)(F)F)c3)CC2)CC1"
> 20

====

Assay: Cytotoxicity against mouse BAF3 cells
Type: cell-based
Conditions: read-out: TC50 (the source's name)
Property measured: CC50

Please report the measured CC50 for "CC1CCN(C2CCN(c3cc(C(=O)Nc4cccc(Cl)c4)cc(C(F)(F)F)c3)CC2)CC1"
> 8 µM

====

Assay: Selectivity index, TC50 for mice (Mus musculus) BAF3 cells to EC50 for chloroquine-sensitive Plasmodium falciparum 3D7
Type: toxicity, cell-based
Conditions: read-out: Selectivity Index
Property measured: selectivity ratio

Please report the measured selectivity ratio for "CC1CCN(C2CCN(c3cc(C(=O)Nc4cccc(Cl)c4)cc(C(F)(F)F)c3)CC2)CC1"
> 20

====

Test: Cytotoxicity against human Hep2 cells
Type: cell-based, HEp-2
Conditions: read-out: TC50 (the source's name)
Property measured: CC50

Please report the measured CC50 for "CC1CCN(C2CCN(c3cc(C(=O)Nc4cccc(Cl)c4)cc(C(F)(F)F)c3)CC2)CC1"
> 8 µM

====

System: Mus musculus
Assay: Dose normalised AUC (0 to 5 hrs) in BALB/c mouse at 20 mg/kg, po
Assay type: ADME, organism-based
Design: time < 4 hr, dose 20 mg/kg, route oral
Conditions: in vivo, 4 h
Property measured: AUC (µg·min/mL)

>>> reported_measurement("O=C(Nc1cc(N2CCC(N3CCCC3)CC2)cc(C(F)(F)F)c1)c1cccc(C(F)(F)F)c1")
6.94
>>> reported_measurement("O=C(Nc1cc(Cl)cc(Cl)c1)c1cc(N2CCC(N3CCCC3)CC2)cc(C(F)(F)F)c1")
7.01
>>> reported_measurement("CC1CCN(C2CCN(c3cc(C(=O)Nc4cccc(Cl)c4)cc(C(F)(F)F)c3)CC2)CC1")
11.42
>>> reported_measurement("O=C(Nc1cccc(Cl)c1)c1cc(N2CCC(N3CCCCC3)CC2)cc(C(F)(F)F)c1")
6.1

I: O=C(Nc1cccc(Cl)c1)c1cc(N2CCC(N3CCCC3)CC2)cc(C(F)(F)F)c1
II: O=C(Nc1cccc(C(F)(F)F)c1)c1cc(N2CCc3ccccc3C2)cc(C(F)(F)F)c1
Which entry shows the lesser value of AUC here, I or II ? Answer by stating the label of the chosen item.
II

====

Assay: Selectivity index, TC50 for human Hep2 cells to EC50 for chloroquine-sensitive Plasmodium falciparum 3D7
Assay type: toxicity, cell-based, HEp-2
Conditions: read-out: Selectivity Index
Property measured: selectivity ratio

Please report the measured selectivity ratio for "CC1CCN(C2CCN(c3cc(C(=O)Nc4cccc(Cl)c4)cc(C(F)(F)F)c3)CC2)CC1"
> 20

====

System: Mus musculus
Test: AUC (0 to 5 hrs) in BALB/c mouse at 20 mg/kg
Format: ADME, organism-based, Plasma
Parameters: time < 4 hr, dose 20 mg/kg
Details: in vivo, 4 h
Property measured: AUC (µM·h)

>>> reported_measurement("O=C(Nc1cccc(Cl)c1)c1cc(N2CCC(N3CCCCC3)CC2)cc(C(F)(F)F)c1")
4.37
>>> reported_measurement("O=C(Nc1cccc(Cl)c1)c1cc(N2CCC(N3CCCC3)CC2)cc(C(F)(F)F)c1")
3.92
>>> reported_measurement("CC1CCN(C2CCN(c3cc(C(=O)Nc4cccc(Cl)c4)cc(C(F)(F)F)c3)CC2)CC1")
7.93
>>> reported_measurement("O=C(Nc1cc(Cl)cc(Cl)c1)c1cc(N2CCC(N3CCCC3)CC2)cc(C(F)(F)F)c1")
4.81
